Source of measurements: PubChem BioAssay (NCI)

# Test system: NCI-H460 lung
# Assay Name: NCI-60 one-dose screen, 48 h
# Condition Info: 10 µM unless noted
Compounds without any hit were thinned out: in the full panel of roughly 83,000, 20% have a hit. The source made the active and inactive calls. How the source made its calls: active means growth percent below 10; inactive means the rest.
Possible outcomes: 1 (yes) for active, 0 (no) for inactive

Compound	Assigned Category
CCCCc1ccc(NS(=O)(=O)c2cc3c4c(c2)CCN4C(=O)CC3)cc1	1 (yes)
COc1ccc2sc(N(Cc3cccnc3)C(=O)c3ccc(C#N)cc3)nc2c1	0 (no)
N#Cc1c(N)nc2c(c1N)C(c1ccc(F)cc1)c1ccc(N)cc1O2 (stereo not given)	0 (no)
COc1cccc2c1C=C1CCCCC3=Cc4c(OC)cccc4OC13O2	0 (no)
COc1cccc(/C(C#N)=C/c2nc3c(N4CCOCC4)nc(Cl)nc3n2C)c1	0 (no)
